Target: T1, Fusion protein of LAG-3 extracellular region and mIgG2a Fc (human)
T1 construct: Limits of the signal peptide are marked only by lost underlining; also called LAG-3-mFc; LAG-3-mFc fusion protein
T1 chain: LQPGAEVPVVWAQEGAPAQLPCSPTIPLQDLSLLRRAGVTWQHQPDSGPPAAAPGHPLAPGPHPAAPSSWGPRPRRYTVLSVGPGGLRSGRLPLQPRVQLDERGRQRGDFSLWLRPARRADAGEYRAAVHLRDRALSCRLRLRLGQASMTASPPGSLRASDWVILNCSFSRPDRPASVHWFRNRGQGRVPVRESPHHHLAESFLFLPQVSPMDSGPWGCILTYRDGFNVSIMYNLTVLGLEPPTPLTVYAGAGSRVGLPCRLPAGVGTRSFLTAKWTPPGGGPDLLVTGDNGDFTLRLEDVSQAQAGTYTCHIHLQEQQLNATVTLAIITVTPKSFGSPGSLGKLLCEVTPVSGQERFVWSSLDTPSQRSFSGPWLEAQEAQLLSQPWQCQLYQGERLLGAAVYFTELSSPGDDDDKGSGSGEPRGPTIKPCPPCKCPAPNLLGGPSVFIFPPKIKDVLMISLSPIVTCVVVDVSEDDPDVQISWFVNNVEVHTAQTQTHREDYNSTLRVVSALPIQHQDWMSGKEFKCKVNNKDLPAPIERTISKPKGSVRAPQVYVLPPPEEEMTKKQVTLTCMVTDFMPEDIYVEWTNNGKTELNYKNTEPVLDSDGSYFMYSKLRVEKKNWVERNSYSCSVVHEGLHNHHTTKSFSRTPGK
Test: ELISA, LAG-3-mFc captured by anti-mouse Fc on plate (which fusion: inferred)
value.type: pEC50
# pEC50: negative log10 of molar concentration; output just the value

See these solved cases before continuing.
Hu303-009 (antibody, human IgG4 S228P, kappa, V domains shown, Humanized mAb303) VH: QVQLVQSGAEVKKPGASVKVSCKASGYTFTDYYMNWVRQAPGQRLEWMGVINPYNGDTAYNQKFKGRVTITVDKSASTAYMELSSLRSEDTAVYYCTRDDGYYDYYFDVWGQGTTVTVSS VL: DIQMTQSPSSLSASVGDRVTITCRASQDIGSRLNWYQQKPGKAPKLLIYATSTLDSGVPSRFSGSGSGTDFTLTISSLQPEDFATYYCLQLASSPPTFGGGTKVEIKR ... 9.50
Hu303-006 (antibody, human IgG4 S228P, kappa, V domains shown, Humanized mAb303) VH: QVQLVQSGAEVKKPGASVKVSCKASGYTFTDYYMNWVRQAPGQRLEWMGVINPYNGDTAYNQKFKGRVTITRDTSASTAYMELSSLRSEDTAVYYCARDDGYYDYYFDVWGQGTTVTVSS VL: DIQMTQSPSSLSASVGDRVTITCRASQDIGSRLNWYQQKPGKAPKRLIYATSTLDSGVPKRFSGSRSGTDFTLTISSLQPEDFATYYCLQLASSPPTFGGGTKVEIKR ... 9.54
Hu229-008 (antibody, human IgG4 S228P, kappa, V domains shown, Humanized mAb229) VH: QVQLVQSGSELKKPGASVKVSCKASGYTFTTSGMSWVRQAPGQGLKWMGWINTYSGVPTYADDFKGRFVFSLDTSVSTAYLQISSLKAEDTAVYYCARDNYDARDVYYYAMDYWGQGTTVTVSS VL: DIQMTQSPSSLSASVGDRVTITCRASENIYSNLAWYQQKPGKAPKLLIYAATNLADGVPSRFSGSGSGTDFTLTISSLQPEDFATYYCQHFWITPWTFGGGTKVEIKR ... 9.30
Hu303-021 (antibody, human IgG4 S228P, kappa, V domains shown, Humanized mAb303) VH: QVQLVQSGAEVKKPGASVKVSCKASGYTLTDYYMNWVRQAPGQRLEWIGVINPYNGDTAYNQKFKGRATLTVDKSASTAYMELSSLRSEDTAVYYCTRDDGYYDYYFDVWGQGTTVTVSS VL: DIQMTQSPSSLSASVGDRVTITCRASQDIGSRLNWYQQKPGKAPKRLIYATSTLDSGVPKRFSGSRSGTDFTLTISSLQPEDFATYYCLQLASSPPTFGGGTKVEIKR ... 9.77

Consider now this further binder.
Prompt line: Reported pEC50 for Hu303-015 (antibody, human IgG4 S228P, kappa, V domains shown, Humanized mAb303) VH: QVQLVQSGAEVKKPGASVKVSCKASGYTLTDYYMNWVRQAPGQRLEWMGVINPYNGDTAYNQKFKGRVTITVDKSASTAYMELSSLRSEDTAVYYCTRDDGYYDYYFDVWGQGTTVTVSS VL: DIQMTQSPSSLSASVGDRVTITCRASQDIGSRLNWYQQKPGKAPKRLIYATSTLDSGVPSRFSGSRSGTDFTLTISSLQPEDFATYYCLQLASSPPTFGGGTKVEIKR : what is it?
Response line: 9.76
